System: canine peripheral blood mononuclear cells (cPBMCs)
TEST_DESCRIPTION: Cytokine production in canine PBMCs by ELISA (Example 2)
Assay type: cell-based
RECORDED_CONDITIONS: ± SD, 20 μM, 29 hours, ELISA, triplicate

LINE_NOTATION: CCCCc1nc2c(N)nc3cc(C#N)ccc3c2n1CC(C)(C)O
Cytokine IL-6: 290 ± 77 pg/mL

LINE_NOTATION: CCCCc1nc2c(N)nc3cc(Cl)ccc3c2n1CC(C)C
Cytokine IL-6: 240 ± 67 pg/mL

LINE_NOTATION: CCOCc1nc2c(N)nc3cc(C#N)ccc3c2n1CC(C)C
Cytokine IL-6: 71 ± 20 pg/mL

LINE_NOTATION: CCOCc1nc2c(N)nc3cc(Cl)ccc3c2n1CC(C)C
Cytokine IL-6: 280 ± 81 pg/mL

LINE_NOTATION: CCCCc1nc2c(N)nc3cc(OC)ccc3c2n1CC(C)C
Cytokine IL-6: 500 ± 140 pg/mL

LINE_NOTATION: CCCCc1nc2c(N)nc3cc(Cl)ccc3c2n1CC(C)(C)O
Cytokine IL-6: 230 ± 44 pg/mL

LINE_NOTATION: CCOCc1nc2c(N)nc3cc(C#N)ccc3c2n1CC(C)(C)O
Cytokine IL-6: 214 ± 69 pg/mL

* * *

Quick list: Cytokine IL-10 per entry.
Test system: canine peripheral blood mononuclear cells (cPBMCs)
TEST_DESCRIPTION: Cytokine production in canine PBMCs by ELISA (Example 2)
Assay type: cell-based
RECORDED_CONDITIONS: ± SD, 20 μM, 29 hours, ELISA, triplicate

COMPOUND: CCOCc1nc2c(N)nc3ccccc3c2n1CC(C)(C)O [Compound 2, resiquimod, reference compound]
ASSAYED_TARGET: canine peripheral blood mononuclear cells (cPBMCs)
Cytokine IL-10: 21 ± 2 pg/mL

COMPOUND: CCCCc1nc2c(N)nc3cc(C#N)ccc3c2n1CC(C)(C)O
ASSAYED_TARGET: canine peripheral blood mononuclear cells (cPBMCs)
Cytokine IL-10: 14 ± 3 pg/mL

COMPOUND: CCCCc1nc2c(N)nc3cc(O)ccc3c2n1CC(C)C
ASSAYED_TARGET: canine peripheral blood mononuclear cells (cPBMCs)
Cytokine IL-10: 17 ± 3 pg/mL

COMPOUND: CCOCc1nc2c(N)nc3cc(Cl)ccc3c2n1CC(C)(C)O
ASSAYED_TARGET: canine peripheral blood mononuclear cells (cPBMCs)
Cytokine IL-10: 12 ± 3 pg/mL

COMPOUND: CCCCc1nc2c(N)nc3cc(Cl)ccc3c2n1CC(C)(C)O
ASSAYED_TARGET: canine peripheral blood mononuclear cells (cPBMCs)
Cytokine IL-10: 7 ± 6 pg/mL

COMPOUND: CCOCc1nc2c(N)nc3cc(C#N)ccc3c2n1CC(C)(C)O
ASSAYED_TARGET: canine peripheral blood mononuclear cells (cPBMCs)
Cytokine IL-10: 6 ± 3 pg/mL

COMPOUND: CCCCc1nc2c(N)nc3cc(OC)ccc3c2n1CC(C)C
ASSAYED_TARGET: canine peripheral blood mononuclear cells (cPBMCs)
Cytokine IL-10: 37 ± 13 pg/mL

COMPOUND: CCCCc1nc2c(N)nc3cc(OC)ccc3c2n1CC(C)(C)O
ASSAYED_TARGET: canine peripheral blood mononuclear cells (cPBMCs)
Cytokine IL-10: 14 ± 2 pg/mL

COMPOUND: CCOCc1nc2c(N)nc3cc(C#N)ccc3c2n1CC(C)C
ASSAYED_TARGET: canine peripheral blood mononuclear cells (cPBMCs)
Cytokine IL-10: 6 ± 2 pg/mL

COMPOUND: CCCCc1nc2c(N)nc3cc(Cl)ccc3c2n1CC(C)C
ASSAYED_TARGET: canine peripheral blood mononuclear cells (cPBMCs)
Cytokine IL-10: 14 ± 4 pg/mL

COMPOUND: CCOCc1nc2c(N)nc3cc(Cl)ccc3c2n1CC(C)C
ASSAYED_TARGET: canine peripheral blood mononuclear cells (cPBMCs)
Cytokine IL-10: 20 ± 1 pg/mL

COMPOUND: CCCCc1nc2c(N)nc3cc(C#N)ccc3c2n1CC(C)C
ASSAYED_TARGET: canine peripheral blood mononuclear cells (cPBMCs)
Cytokine IL-10: 37 ± 10 pg/mL

* * *

Test system: canine peripheral blood mononuclear cells (cPBMCs)
TEST_DESCRIPTION: Cytokine production in canine PBMCs by ELISA (Example 2)
Type: cell-based
RECORDED_CONDITIONS: ± SD, 20 μM, 29 hours, ELISA, triplicate

MOLECULE: CCOCc1nc2c(N)nc3ccccc3c2n1CC(C)(C)O [Compound 2, resiquimod, reference compound]
Cytokine IL-6, pg/mL: 380

MOLECULE: CCCCc1nc2c(N)nc3cc(O)ccc3c2n1CC(C)C
Cytokine IL-6, pg/mL: 330

MOLECULE: CCCCc1nc2c(N)nc3cc(OC)ccc3c2n1CC(C)(C)O
Cytokine IL-6, pg/mL: 290

MOLECULE: CCCCc1nc2c(N)nc3cc(C#N)ccc3c2n1CC(C)C
Cytokine IL-6, pg/mL: 350

MOLECULE: CCOCc1nc2c(N)nc3cc(Cl)ccc3c2n1CC(C)(C)O
Cytokine IL-6, pg/mL: 320

* * *

Quick list: Cytokine IL-12 per entry.
Test system: canine peripheral blood mononuclear cells (cPBMCs)
TEST_DESCRIPTION: Cytokine production in canine PBMCs by ELISA (Example 2)
Format: cell-based
RECORDED_CONDITIONS: ± SD, 20 μM, 29 hours, ELISA, triplicate

COMPOUND: CCCCc1nc2c(N)nc3cc(C#N)ccc3c2n1CC(C)C [Compound 10]
Cytokine IL-12 / pg/mL: 920
--
COMPOUND: CCCCc1nc2c(N)nc3cc(Cl)ccc3c2n1CC(C)(C)O [Compound 8]
Cytokine IL-12 / pg/mL: 1700
--
COMPOUND: CCCCc1nc2c(N)nc3cc(O)ccc3c2n1CC(C)C [Compound 14]
Cytokine IL-12 / pg/mL: 102

* * *

ASSAYED_TARGET: UniProtKB Q9NYK1
Sequence (Q9NYK1 27-1049): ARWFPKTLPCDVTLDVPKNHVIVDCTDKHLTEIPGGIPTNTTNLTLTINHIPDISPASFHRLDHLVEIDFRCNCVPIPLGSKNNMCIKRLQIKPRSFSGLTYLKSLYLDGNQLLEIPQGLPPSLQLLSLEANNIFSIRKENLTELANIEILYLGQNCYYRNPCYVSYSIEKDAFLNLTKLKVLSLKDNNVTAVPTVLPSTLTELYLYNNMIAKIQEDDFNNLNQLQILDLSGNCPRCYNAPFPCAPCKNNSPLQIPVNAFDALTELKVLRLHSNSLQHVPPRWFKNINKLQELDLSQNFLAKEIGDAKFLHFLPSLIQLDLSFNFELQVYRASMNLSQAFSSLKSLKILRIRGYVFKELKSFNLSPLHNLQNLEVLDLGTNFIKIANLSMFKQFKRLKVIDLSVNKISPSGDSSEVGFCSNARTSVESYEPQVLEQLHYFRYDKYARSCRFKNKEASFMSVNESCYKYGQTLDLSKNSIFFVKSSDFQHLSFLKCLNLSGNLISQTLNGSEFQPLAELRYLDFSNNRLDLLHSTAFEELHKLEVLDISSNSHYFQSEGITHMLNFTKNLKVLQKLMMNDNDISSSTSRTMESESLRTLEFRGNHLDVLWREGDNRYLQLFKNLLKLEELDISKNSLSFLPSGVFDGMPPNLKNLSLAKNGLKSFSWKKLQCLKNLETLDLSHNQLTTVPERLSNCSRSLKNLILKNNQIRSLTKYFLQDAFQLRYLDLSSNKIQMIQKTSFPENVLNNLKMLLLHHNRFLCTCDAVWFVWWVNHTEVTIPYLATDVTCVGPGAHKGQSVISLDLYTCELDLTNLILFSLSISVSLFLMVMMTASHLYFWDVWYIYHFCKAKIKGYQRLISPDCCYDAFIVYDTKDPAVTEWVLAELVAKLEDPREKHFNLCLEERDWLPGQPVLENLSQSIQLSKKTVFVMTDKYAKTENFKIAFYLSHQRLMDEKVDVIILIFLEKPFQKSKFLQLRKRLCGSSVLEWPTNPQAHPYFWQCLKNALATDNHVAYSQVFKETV
TEST_DESCRIPTION: SEAP reporter assay for hTLR-7 activity (HEK-Blue hTLR7 cells)
RECORDED_CONDITIONS: ± SD; hTLR7 transfected HEK-Blue cells, Null subtracted; three independent measurements; 12 hours; read-out: EC50 TLR7
Procedure: TLR activation induces NF-κB production and subsequent SEAP secretion, which is measured using HEK-Detection media (InvivoGen) containing a colorimetric substrate for SEAP (UV-Vis, 637 nm). The experiments followed manufacturer protocol as follows: SEAP levels were measured via absorbance at 637 nm using HEK-Blue Detection cell culture medium (InvivoGen), which contains a SEAP-specific colorimetric substrate. Compound stock solutions were first diluted in sterile DMSO at a concentration of 10 mM. […]
Quick list: log10 of EC50 per entry.
METRIC_NAME: log10 of EC50 (log10 of the value in nM)

MOLECULE: CCOCc1nc2c(N)nc3cc(C#N)ccc3c2n1CC(C)C [Compound 11]
ASSAYED_TARGET: UniProtKB Q9NYK1
METRIC_NAME: log10 of EC50
ENDPOINT_VALUE: 3.83

MOLECULE: CCOCc1nc2c(N)nc3cc(Cl)ccc3c2n1CC(C)C [Compound 7]
ASSAYED_TARGET: UniProtKB Q9NYK1
METRIC_NAME: log10 of EC50
ENDPOINT_VALUE: 2.96

MOLECULE: CCCCc1nc2c(N)nc3cc(Cl)ccc3c2n1CC(C)(C)O [Compound 8]
ASSAYED_TARGET: UniProtKB Q9NYK1
METRIC_NAME: log10 of EC50
ENDPOINT_VALUE: 1.92

MOLECULE: CCCCc1nc2c(N)nc3cc(O)ccc3c2n1CC(C)C [Compound 14]
ASSAYED_TARGET: UniProtKB Q9NYK1
METRIC_NAME: log10 of EC50
ENDPOINT_VALUE: 1.86

MOLECULE: CCCCc1nc2c(N)nc3cc(Cl)ccc3c2n1CC(C)C [Compound 6]
ASSAYED_TARGET: UniProtKB Q9NYK1
METRIC_NAME: log10 of EC50
ENDPOINT_VALUE: 2.48

MOLECULE: CCCCc1nc2c(N)nc3cc(OC)ccc3c2n1CC(C)(C)O [Compound 5]
ASSAYED_TARGET: UniProtKB Q9NYK1
METRIC_NAME: log10 of EC50
ENDPOINT_VALUE: 1.91

MOLECULE: CC(C)Cn1cnc2c(N)nc3ccccc3c21 [Compound 1, imiquimod, reference compound]
ASSAYED_TARGET: UniProtKB Q9NYK1
METRIC_NAME: log10 of EC50
ENDPOINT_VALUE: 3.83

MOLECULE: CCOCc1nc2c(N)nc3cc(C#N)ccc3c2n1CC(C)(C)O [Compound 13]
ASSAYED_TARGET: UniProtKB Q9NYK1
METRIC_NAME: log10 of EC50
ENDPOINT_VALUE: 3.54

MOLECULE: CCCCc1nc2c(N)nc3cc(C#N)ccc3c2n1CC(C)C [Compound 10]
ASSAYED_TARGET: UniProtKB Q9NYK1
METRIC_NAME: log10 of EC50
ENDPOINT_VALUE: 3.00

MOLECULE: CCCCc1nc2c(N)nc3cc(C#N)ccc3c2n1CC(C)(C)O [Compound 12]
ASSAYED_TARGET: UniProtKB Q9NYK1
METRIC_NAME: log10 of EC50
ENDPOINT_VALUE: 2.90

MOLECULE: CCCCc1nc2c(N)nc3cc(OC)ccc3c2n1CC(C)C [Compound 4]
ASSAYED_TARGET: UniProtKB Q9NYK1
METRIC_NAME: log10 of EC50
ENDPOINT_VALUE: 2.04

MOLECULE: CCOCc1nc2c(N)nc3cc(Cl)ccc3c2n1CC(C)(C)O [Compound 9]
ASSAYED_TARGET: UniProtKB Q9NYK1
METRIC_NAME: log10 of EC50
ENDPOINT_VALUE: 2.80
